# Tested on: A549
# Method Description: Antiproliferative activity against human A549 cells at 0.1 to 10 uM after 96 hrs by WST8 assay
# Type: functional, cell-based
The source made the active and inactive calls. The rule behind the calls is not given here.
Result category, one only: class 1 = active, class 0 = inactive

## Task Per the records of this test, what outcome belongs to CC(=O)Nc1cc(C(=O)Nc2cn(C)c(C(=O)Nc3cn(C)c(C(=O)Nc4cc(C(=O)NCCCC(=O)Nc5cc(C(=O)Nc6cc(C(=O)Nc7cc(C(=O)Nc8cc(C(=O)NCCCN(C)C)n(C)c8)n(C)c7)n(C)c6)n(C)c5)n(C)c4)n3)n2)n(C)c1 ?
## Result class 0

## Task Per the records of this test, what outcome belongs to CC1=NN(c2ccc(C(=O)NCCOCCOCC(=O)NCCC(=O)Nc3cn(C)c(C(=O)Nc4cc(C(=O)Nc5cn(C)c(C(=O)Nc6cn(C)c(C(=O)NCCCC(=O)Nc7cc(C(=O)Nc8cc(C(=O)Nc9cc(C(=O)Nc%10cc(C(=O)NCCCN(C)C)n(C)c%10)n(C)c9)n(C)c8)n(C)c7)n6)n5)n(C)c4)n3)cc2)C(=O)/C1=C/c1ccc(-c2cc(C)c(C)cc2[N+](=O)[O-])o1 ?
## Result class 1
